- system: T1, human PXR-GST (Invitrogen) (human, UniProt O75469 111-434, limits assumed)
- T1 construct: Captured on an anti-GST antibody chip; the whole natural protein is named; also called GST-PXR; GST-tagged PXR; not shown: GST tag
- T1 sequence (looked up): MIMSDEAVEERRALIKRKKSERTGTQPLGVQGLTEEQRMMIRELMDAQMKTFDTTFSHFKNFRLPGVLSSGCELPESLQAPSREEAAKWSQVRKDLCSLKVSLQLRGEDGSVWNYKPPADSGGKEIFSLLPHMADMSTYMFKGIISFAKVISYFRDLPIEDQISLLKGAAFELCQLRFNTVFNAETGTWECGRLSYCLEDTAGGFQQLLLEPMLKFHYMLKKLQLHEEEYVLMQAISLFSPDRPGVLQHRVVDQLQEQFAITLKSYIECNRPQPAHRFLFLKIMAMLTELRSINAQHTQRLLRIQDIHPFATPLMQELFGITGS
- protocolNotes: SPR, Biacore T100; human PXR-GST captured on anti-GST antibody chip;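 further: binding rate constants and Kd derived from kinetic cycles using the Biacore T100 analysis software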

binder	kon, M⁻¹ s⁻¹
Adnectin-5 (designed binder) MGVSDVPRDLEVVAATPTSLLISWKYPYETISYYRITYGETGGNSPVQEFTVPYYRSTATISGLKPGVDYTITVYAVEASAPYSDGGSPISINYRTEIDKPSQHHHHHH	509000
Adnectin-8 (designed binder) MGVSDVPRDLEVVAATPTSLLISWSQPGRYVKYYRITYGETGGNSPVQEFTVPNDTYTATISGLKPGVDYTITVYAVYGKYGPYYGYDPISINYRTEIDKPSQHHHHHH	41700
Adnectin-6 (designed binder) MGVSDVPRDLEVVAATPTSLLISWSRPKGSIKYYRITYGETGGNSPVQEFTVPNSQYTATISGLKPGVDYTITVYAVYGYPYQEPHYYPISINYRTEIDKPSQHHHHHH	680000
